# measured_on: APJ receptor (Homo sapiens, UniProt P35414)
# Construct: expressed in transfected cells; host or cells: Human TRex cells (doxycycline-inducible)
# Sequence (P35414 whole entry): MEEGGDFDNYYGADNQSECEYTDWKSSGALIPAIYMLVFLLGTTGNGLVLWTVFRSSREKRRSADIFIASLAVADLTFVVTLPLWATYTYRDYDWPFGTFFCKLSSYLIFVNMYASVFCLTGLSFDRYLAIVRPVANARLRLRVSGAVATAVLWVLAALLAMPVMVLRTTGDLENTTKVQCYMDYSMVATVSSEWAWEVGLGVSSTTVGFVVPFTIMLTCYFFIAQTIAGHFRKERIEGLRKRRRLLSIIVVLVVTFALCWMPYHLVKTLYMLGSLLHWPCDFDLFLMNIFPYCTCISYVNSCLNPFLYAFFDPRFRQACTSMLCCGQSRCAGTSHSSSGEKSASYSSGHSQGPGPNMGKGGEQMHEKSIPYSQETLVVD
# protocol_text: HTRF cAMP assay, inhibition of NKH477 stimulated cAMP in Human TRex cells expressing APJ upon doxycycline induction (APJ-hTREX)
# Type: cell-based
# cond: read-out: % IA (@ 300 nM)
Where a SMILES comes first, the peptide text is derived from it. [ ]: non-standard residue; d: D form. The star is where a group is joined. Palmitoyl = CCCCCCCCCCCCCCCC(=O)*
quantity_measured: percent intrinsic activity at 0.3 µM
Enter the number, and then the unit.

These solved cases illustrate the format of a correct answer.
[
  {
    "compound": "CCCCCCCCCCCCCCCC(=O)N[C@H](C(=O)N[C@H](C(=O)N[C@@H](Cc1ccccc1)C(=O)N[C@@H](CCCNC(=N)N)C(=O)N[C@@H](CO)C(=O)N[C@@H](CO)C(=O)N[C@@H](CCC(=O)O)C(=O)N[C@H](CCCCN)C(=O)N[C@@H](CCCNC(=N)N)C(=O)N[C@@H](CCCNC(=N)N)C(=O)N[C@@H](CO)C(=O)N[C@@H](C)C(=O)N[C@@H](CC(=O)O)C(=O)N1CCC[C@H]1C(=O)N[C@@H](Cc1ccccc1)C(=O)N[C@H](C(N)=O)[C@@H](C)CC)C(C)C)[C@@H](C)O [Compound 54] (Palmitoyl-TVFRSSE[dK]RRSADPFI-NH2)",
    "percent intrinsic activity at 0.3 µM": "46%"
  },
  {
    "compound": "CCCCCCCCCCCCCCCC(=O)N[C@H](C(=O)N[C@H](C(=O)N[C@@H](Cc1ccccc1)C(=O)N[C@@H](CCCNC(=N)N)C(=O)N[C@@H](CO)C(=O)N[C@@H](CO)C(=O)N[C@@H](CCC(=O)O)C(=O)N[C@H](CCCCN)C(=O)N[C@@H](CCCNC(=N)N)C(=O)N[C@@H](CCCNC(=N)N)C(=O)N[C@@H](CO)C(=O)N[C@@H](C)C(=O)N[C@@H](CC(=O)O)C(=O)N[C@H](C(=O)N1CCC[C@H]1C(=O)N[C@H](C(N)=O)[C@@H](C)CC)[C@@H](C)CC)C(C)C)[C@@H](C)O [Compound 55] (Palmitoyl-TVFRSSE[dK]RRSADIPI-NH2)",
    "percent intrinsic activity at 0.3 µM": "43%"
  },
  {
    "compound": "CCCCCCCCCCCCCCCC(=O)N[C@H](C(=O)N[C@H](C(=O)N[C@@H](Cc1ccccc1)C(=O)N[C@@H](CCCNC(=N)N)C(=O)N[C@@H](CO)C(=O)N[C@@H](CO)C(=O)NCC(=O)N[C@H](CCCCN)C(=O)N[C@@H](CCCNC(=N)N)C(=O)N[C@@H](CCCNC(=N)N)C(=O)N[C@@H](CO)C(=O)N[C@@H](C)C(=O)N[C@@H](CC(=O)O)C(=O)N[C@H](C(=O)N[C@@H](Cc1ccccc1)C(=O)N[C@H](C(N)=O)[C@@H](C)CC)[C@@H](C)CC)C(C)C)[C@@H](C)O [Compound 74] (Palmitoyl-TVFRSSG[dK]RRSADIFI-NH2)",
    "percent intrinsic activity at 0.3 µM": "61%"
  }
]

Any idea what percent intrinsic activity at 0.3 µM came out for CCCCCCCCCCCCCCCC(=O)N[C@H](C(=O)N[C@H](C(=O)N[C@@H](Cc1ccccc1)C(=O)N[C@@H](CCCNC(=N)N)C(=O)N[C@@H](CO)C(=O)N[C@@H](CO)C(=O)N[C@@H](CCC(=O)O)C(=O)N[C@H](CCCCN)C(=O)N[C@@H](CCCNC(=N)N)C(=O)N1CCC[C@H]1C(=O)N[C@@H](CO)C(=O)N[C@@H](C)C(=O)N[C@@H](CC(=O)O)C(=O)N[C@H](C(=O)N[C@@H](Cc1ccccc1)C(=O)N[C@H](C(N)=O)[C@@H](C)CC)[C@@H](C)CC)C(C)C)[C@@H](C)O [Compound 50] (Palmitoyl-TVFRSSE[dK]RPSADIFI-NH2) on APJ receptor (Homo sapiens, UniProt P35414)? 41%

---

# measured_on: APJ receptor (Homo sapiens, UniProt P35414)
# Construct: expressed in transfected cells; host or cells: Human TRex cells (doxycycline-inducible)
# protocol_text: HTRF cAMP assay, inhibition of NKH477 stimulated cAMP in Human TRex cells expressing APJ upon doxycycline induction (APJ-hTREX)
# Type: cell-based
# cond: read-out: % IA (@ 300 nM)
Where a SMILES comes first, the peptide text is derived from it. [ ]: non-standard residue; d: D form. The star is where a group is joined. Palmitoyl = CCCCCCCCCCCCCCCC(=O)*
quantity_measured: percent intrinsic activity at 0.3 µM (%)
One number for each entry, in %.

[
  {
    "compound": "CCCCCCCCCCCCCCCC(=O)N[C@H](C(=O)N[C@H](C(=O)N[C@@H](Cc1ccccc1)C(=O)N[C@@H](CCCNC(=N)N)C(=O)N[C@@H](CO)C(=O)N[C@@H](CO)C(=O)N[C@@H](CCC(=O)O)C(=O)N[C@H](CCCCN)C(=O)NCC(=O)N[C@@H](CCCNC(=N)N)C(=O)N[C@@H](CO)C(=O)N[C@@H](C)C(=O)N[C@@H](CC(=O)O)C(=O)N[C@H](C(=O)N[C@@H](Cc1ccccc1)C(=O)N[C@H](C(N)=O)[C@@H](C)CC)[C@@H](C)CC)C(C)C)[C@@H](C)O [Compound 75] (Palmitoyl-TVFRSSE[dK]GRSADIFI-NH2)",
    "unit_tag": "%",
    "percent intrinsic activity at 0.3 µM": 57
  },
  {
    "compound": "CCCCCCCCCCCCCCCC(=O)N[C@H](C(=O)N[C@H](C(=O)N[C@@H](Cc1ccccc1)C(=O)N[C@@H](CCCNC(=N)N)C(=O)N[C@@H](CO)C(=O)N[C@@H](CO)C(=O)N[C@@H](CCC(=O)O)C(=O)N[C@H](CCCCN)C(=O)N[C@@H](CCCNC(=N)N)C(=O)N[C@@H](CCCNC(=N)N)C(=O)N[C@@H](CO)C(=O)N[C@@H](C)C(=O)NCC(=O)N[C@H](C(=O)N[C@@H](Cc1ccccc1)C(=O)N[C@H](C(N)=O)[C@@H](C)CC)[C@@H](C)CC)C(C)C)[C@@H](C)O [Compound 78] (Palmitoyl-TVFRSSE[dK]RRSAGIFI-NH2)",
    "unit_tag": "%",
    "percent intrinsic activity at 0.3 µM": 60
  }
]

For each entry beneath this line, provide reported percent intrinsic activity at 0.3 µM.
1. CCCCCCCCCCCCCCCC(=O)N[C@H](C(=O)N[C@H](C(=O)N[C@@H](Cc1ccccc1)C(=O)N[C@@H](CCCNC(=N)N)C(=O)N[C@@H](CO)C(=O)N[C@@H](CO)C(=O)N[C@@H](CCC(=O)O)C(=O)N[C@H](CCCCN)C(=O)N[C@@H](CCCNC(=N)N)C(=O)N[C@@H](CCCNC(=N)N)C(=O)N[C@@H](CO)C(=O)N[C@@H](C)C(=O)N[C@@H](CC(=O)O)C(=O)N[C@H](C(=O)N[C@@H](Cc1ccccc1)C(=O)N[C@@H](CC(=O)O)C(N)=O)[C@@H](C)CC)C(C)C)[C@@H](C)O [Compound 41] (Palmitoyl-TVFRSSE[dK]RRSADIFD-NH2)
2. CCCCCCCCCCCCCCCC(=O)NCC(=O)N[C@H](C(=O)N[C@@H](Cc1ccccc1)C(=O)N[C@@H](CCCNC(=N)N)C(=O)N[C@@H](CO)C(=O)N[C@@H](CO)C(=O)N[C@@H](CCC(=O)O)C(=O)N[C@H](CCCCN)C(=O)N[C@@H](CCCNC(=N)N)C(=O)N[C@@H](CCCNC(=N)N)C(=O)N[C@@H](CO)C(=O)N[C@@H](C)C(=O)N[C@@H](CC(=O)O)C(=O)N[C@H](C(=O)N[C@@H](Cc1ccccc1)C(=O)N[C@H](C(N)=O)[C@@H](C)CC)[C@@H](C)CC)C(C)C [Compound 68] (Palmitoyl-GVFRSSE[dK]RRSADIFI-NH2)

1: 60; 2: 69
